Molecular target: GST-MCL-1 (Homo sapiens)
Assay: TR-FRET MCL-1 binding assay (competition with probe F-Bak)
Settings: without HS; read-out: MCL-1 Binding Ki
READOUT LABEL: pKi
Please report pKi as the negative decimal logarithm of the molar concentration, giving only the number.

Below are worked cases with known answers.
INSERT INTO results (compound, endpoint_result) VALUES
  ('COCCOCCOCCC1CCN(C[C@@H]2COc3ccc(OCc4ccnc(-c5ccccc5OC)n4)c(c3)C[C@H](C(=O)O)Oc3ncnc4sc(-c5ccc(F)cc5)c(c34)-c3ccc(c(Cl)c3C)O2)CC1 (atropisomer, axis not shown) [Example 21]', 10.23),
  ('COCCOCCOCCOCc1ccc(-c2nccc(COc3ccc4cc3C[C@H](C(=O)O)Oc3ncnc5sc(-c6ccc(F)cc6)c(c35)-c3c(C)c(Cl)c(c(Cl)c3C)O[C@H](CN3CCN(C)CC3)CO4)n2)cc1COCCOCCOCCOC [Example 152]', 10.96);

stdin: In one line, give reported pKi of the entry Cc1c(Cl)c2c(Cl)c(C)c1-c1c(-c3ccc(F)cc3)sc3ncnc(c13)O[C@@H](C(=O)O)Cc1cc(ccc1OCc1ccnc(N3CCC(C)(CC(=O)O)CC3)n1)OC[C@@H](CN1CCN(C)CC1)O2 [Example 41] .
stdout: 10.11

* * *

Target: GST-MCL-1 (Homo sapiens)
Test: TR-FRET MCL-1 binding assay (competition with probe F-Bak)
Conditions: without HS; read-out: MCL-1 Binding Ki
Reported Ki is given for each of the following molecules.
Numbers only here, please. The scale is nM.

Below are worked cases with known answers.
INSERT INTO assay_data (molecule, readout_label, unit_text, endpoint_result) VALUES
  ('COCCOCCOCCOCCOCCOCC1(C)CC=C(c2nccc(COc3ccc4cc3C[C@H](C(=O)O)Oc3ncnc5sc(-c6ccc(F)cc6)c(c35)-c3c(C)c(Cl)c(c(Cl)c3C)O[C@H](CN3CCN(C)CC3)CO4)n2)CC1 (single isomer, unassigned) [Example 85]', 'Ki', 'nM', 0.029),
  ('Cc1c(Cl)c2c(Cl)c(C)c1-c1c(-c3ccc(F)cc3)sc3ncnc(c13)O[C@@H](C(=O)O)Cc1cc(ccc1OCc1ccnc([C@@H]3CN4CCC[C@H]4CO3)n1)OC[C@@H](CN1CCN(C)CC1)O2', 'Ki', 'nM', 0.043),
  ('COCCOCCOCCOc1ccc(-c2nccc(COc3ccc4cc3C[C@H](C(=O)O)Oc3ncnc5sc(C6CCCCC6)c(c35)-c3c(C)c(Cl)c(c(Cl)c3C)O[C@H](CN3CCN(C)CC3)CO4)n2)cc1', 'Ki', 'nM', 0.044);

Now turn to the next molecule.
stdin: In one line, give reported Ki of the entry COCCOCCOCCOCCOCCOCCOCCOCCOCCOCCOCCC(=O)NCc1ccc(-c2nccc(COc3ccc4cc3C[C@H](C(=O)O)Oc3ncnc5sc(-c6ccc(F)cc6)c(c35)-c3c(C)c(Cl)c(c(Cl)c3C)O[C@H](CN3CCN(C)CC3)CO4)n2)cc1 .
stdout: 0.199

* * *

Reported Ki is given for each of the following compounds.
Molecular target: GST-MCL-1 (Homo sapiens, UniProt Q07820)
Sequence (Q07820 whole entry): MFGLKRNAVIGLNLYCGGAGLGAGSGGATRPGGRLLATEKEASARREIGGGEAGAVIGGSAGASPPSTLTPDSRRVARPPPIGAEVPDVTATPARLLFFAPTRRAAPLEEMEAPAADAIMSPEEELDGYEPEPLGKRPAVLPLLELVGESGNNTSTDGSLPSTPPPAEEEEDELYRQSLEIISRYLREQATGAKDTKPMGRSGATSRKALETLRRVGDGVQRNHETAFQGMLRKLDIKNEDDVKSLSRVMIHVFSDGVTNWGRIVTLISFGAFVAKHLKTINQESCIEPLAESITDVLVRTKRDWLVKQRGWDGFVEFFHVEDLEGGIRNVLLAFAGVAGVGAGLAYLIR
Assay: TR-FRET MCL-1 binding assay (competition with probe F-Bak)
Conditions: MCL-1 Binding Ki (nM, 10% HS), in the presence of 10% HS (human serum)
Numbers only here, please. The scale is nM.

Below are worked cases with known answers.
INSERT INTO results (compound, endpoint_result) VALUES
  ('Cc1c2ccc(c1Cl)O[C@H](CN1CCN(C)CC1)COc1ccc(OCc3ccnc(-c4ccccc4OCC(=O)O)n3)c(c1)C[C@H](C(=O)O)Oc1ncnc3sc(-c4ccc(F)cc4)c-2c13 (atropisomer, axis not shown)', 0.098),
  ('Cc1c(Cl)c2c(Cl)c(C)c1-c1c(-c3ccc(F)cc3)sc3ncnc(c13)O[C@@H](C(=O)O)Cc1cc(ccc1OCc1ccnc(N3CC(C(CO)CO)C3)n1)OC[C@@H](CN1CCN(C)CC1)O2', 0.65),
  ('COCCOCCO[C@]1(c2nccc(COc3ccc4cc3C[C@H](C(=O)O)Oc3ncnc5sc(-c6ccc(F)cc6)c(c35)-c3c(C)c(Cl)c(c(Cl)c3C)O[C@H](CN3CCN(C)CC3)CO4)n2)CC[C@H](OCC2COCCO2)CC1 (some centres unmarked)', 0.698),
  ('Cc1c(Cl)c2c(Cl)c(C)c1-c1c(-c3ccc(F)cc3)sc3ncnc(c13)O[C@@H](C(=O)O)Cc1cc(ccc1OCc1ccnc(-c3cccc(S(=O)(=O)N4CCOCC4)c3)n1)OC[C@@H](CN1CCN(C)CC1)O2', 0.14);

stdin: In one line, give reported Ki of the entry Cc1c(Cl)c2c(Cl)c(C)c1-c1c(-c3ccc(F)cc3)sc3ncnc(c13)O[C@@H](C(=O)O)Cc1cc(ccc1OCc1ccnc(-c3ccc(CN4CCS(=O)(=O)CC4)cc3)n1)OC[C@@H](CN1CCN(C)CC1)O2 .
stdout: 0.39

stdin: In one line, give reported Ki of the entry COCCOCCOC[C@H]1CC[C@H](c2nccc(COc3ccc4cc3C[C@H](C(=O)O)Oc3ncnc5sc(-c6ccc(F)cc6)c(c35)-c3c(C)c(Cl)c(c(Cl)c3C)O[C@H](CN3CCN(C)CC3)CO4)n2)CC1 .
stdout: 0.083
